For each of the compounds below, state its MIC.
System: Escherichia coli
Experiment: Minimum inhibitory concentration of the compound againstEscherichia coli HN818 strain was determined
Format: functional

Prompt line: Bench note: what MIC did C/C=C/C=C/C(=O)N[C@@H](CC(=O)N[C@H](C(=O)[C@@H]1C(=O)NC(=O)[C@H]1C)C(C)C)c1ccccc1 show?
Response line: 4 µg/mL

Prompt line: Bench note: what MIC did C/C=C/C=C/C(=O)N[C@@H](CC(=O)N[C@H](C(=O)[C@@H]1C(=O)N(CCOC)C(=O)[C@H]1C)C(C)C)c1ccccc1 show?
Response line: > 64 µg/mL

Prompt line: Bench note: what MIC did CC(C)[C@H](NC(=O)C[C@H](NC(=O)/C=C/c1ccc(-c2ccccc2)cc1)c1ccccc1)C(=O)[C@@H]1C(=O)NC(=O)[C@H]1C show?
Response line: > 64 µg/mL

Prompt line: Bench note: what MIC did C/C=C/C=C/C(=O)N[C@@H](CC(=O)N[C@H](C(=O)[C@@H]1C(=O)N(OCC)C(=O)[C@H]1C)C(C)C)c1ccccc1 show?
Response line: 64 µg/mL

Prompt line: Bench note: what MIC did C/C=C/C=C/C(=O)N[C@@H](CC(=O)N[C@H](C(=O)[C@@H]1C(=O)N(C)C(=O)[C@H]1C)C(C)C)c1ccccc1 show?
Response line: 16 µg/mL

Prompt line: Bench note: what MIC did C/C=C/C=C/C(=O)N[C@@H](CC(=O)N[C@H](C(=O)[C@@H]1C(=O)N(C2CC2)C(=O)[C@H]1C)C(C)C)c1ccccc1 show?
Response line: > 64 µg/mL

Prompt line: Bench note: what MIC did C/C=C/C=C/C(=O)N[C@@H](CC(=O)N[C@H](C(=O)[C@@H]1C(=O)NC(=O)C1(C)C)C(C)C)c1ccccc1 show?
Response line: > 64 µg/mL

Prompt line: Bench note: what MIC did COc1cccc(/C=C/C(=O)N[C@@H](CC(=O)N[C@H](C(=O)[C@@H]2C(=O)NC(=O)[C@H]2C)C(C)C)c2ccccc2)c1 show?
Response line: 2 µg/mL

Prompt line: Bench note: what MIC did CC(C)[C@H](NC(=O)C[C@H](NC(=O)/C=C/c1c[nH]cn1)c1ccccc1)C(=O)[C@@H]1C(=O)NC(=O)[C@H]1C show?
Response line: 64 µg/mL

Prompt line: Bench note: what MIC did C/C=C/C=C/C(=O)N[C@@H](CC(=O)N[C@H](C(=O)[C@H]1CC(=O)N(C)C1=O)C(C)C)c1ccccc1 show?
Response line: > 64 µg/mL

Prompt line: Bench note: what MIC did CC(C)[C@H](NC(=O)C[C@H](NC(=O)/C=C/C(=O)O)c1ccccc1)C(=O)[C@@H]1C(=O)NC(=O)[C@H]1C show?
Response line: > 64 µg/mL

Prompt line: Bench note: what MIC did C/C=C/C=C/C(=O)N[C@@H](CC(=O)N[C@H](C(=O)[C@@H]1C(=O)N(N(C)C)C(=O)[C@H]1C)C(C)C)c1ccccc1 show?
Response line: 4 µg/mL

Prompt line: Bench note: what MIC did C/C=C/C=C/C(=O)N[C@@H](CC(=O)N[C@H](C(=O)[C@@H]1C(=O)N(NC)C(=O)[C@H]1C)C(C)C)c1ccccc1 show?
Response line: 8 µg/mL

Prompt line: Bench note: what MIC did C/C=C/C=C/C(=O)N[C@@H](CC(=O)N[C@H](C(=O)C1CC(C)C(=O)NC1=O)C(C)C)c1ccccc1 (some centres undefined) show?
Response line: > 64 µg/mL
